# pIC50 annotations
Biological target: Polyunsaturated fatty acid 5-lipoxygenase (Rattus norvegicus, UniProt P12527)
Sequence (P12527 whole entry): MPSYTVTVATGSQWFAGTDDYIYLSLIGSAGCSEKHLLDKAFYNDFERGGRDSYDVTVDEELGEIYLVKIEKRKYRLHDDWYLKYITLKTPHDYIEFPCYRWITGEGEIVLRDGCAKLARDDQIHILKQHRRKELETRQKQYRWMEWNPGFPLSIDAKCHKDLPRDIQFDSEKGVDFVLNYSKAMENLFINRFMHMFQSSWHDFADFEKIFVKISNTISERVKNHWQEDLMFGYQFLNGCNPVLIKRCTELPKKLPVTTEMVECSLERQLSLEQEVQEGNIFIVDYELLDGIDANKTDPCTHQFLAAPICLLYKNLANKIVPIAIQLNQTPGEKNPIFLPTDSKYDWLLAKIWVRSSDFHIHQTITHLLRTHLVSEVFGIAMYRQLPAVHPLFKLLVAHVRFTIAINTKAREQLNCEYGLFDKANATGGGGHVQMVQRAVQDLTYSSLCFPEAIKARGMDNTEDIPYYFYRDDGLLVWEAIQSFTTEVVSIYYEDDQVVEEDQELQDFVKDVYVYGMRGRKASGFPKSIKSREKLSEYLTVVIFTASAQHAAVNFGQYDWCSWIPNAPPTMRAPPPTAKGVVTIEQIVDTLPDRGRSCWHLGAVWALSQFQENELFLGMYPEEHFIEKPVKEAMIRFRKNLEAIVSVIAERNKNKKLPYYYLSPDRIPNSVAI
Assay: Tested for its inhibitory activity against arachidonic acid in rat 5-lipoxygenase.
# pIC50 is unitless: minus log10 of the molar concentration; print number only

Sample records with pIC50:
molecule	quantity_measured	numeric_value
COc1nc2c(SCCCc3cc4c(cc3O)CC(CCc3ccccc3)O4)cccc2cc1C(=O)O (stereo unspecified)	pIC50	7.30
C=CCc1cc2c(cc1O)C(C)(C)C(CCc1ccc(OC)cc1)O2 (stereo unspecified)	pIC50	7.28
CCCc1cc2c(cc1O)C(C)(C)C(CCSc1ccccn1)O2 (stereo unspecified)	pIC50	7.36
Oc1cc2c(cc1CCCSc1ccncc1)OC(CCc1ccccc1)C2 (stereo unspecified)	pIC50	8.10
CCCc1c(O)c(CCCOc2ccc(C3N=NN=N3)cc2)cc2c1CC(CCc1ccccc1)O2 (stereo unspecified)	pIC50	7.35

Return reported pIC50; argument: Oc1cc2c(cc1CCCOc1ccccc1)OC(CCc1ccc(Cl)cc1)C2 (stereo unspecified)
7.29

I have this molecule here, C=CCc1cc2c(cc1O)CC(CCc1ccccc1)O2 (stereo unspecified) , and I need its recorded pIC50.
7.77

Requested field: pIC50. Item: CCCc1c(OCCCc2cc3c(cc2O)CC(CCc2ccccc2)O3)ccc(C(C)=O)c1O (stereo unspecified)
7.28

Item under review: C=CCc1c(O)ccc2c1CC(CCc1ccccc1)O2 (stereo unspecified) . Reported pIC50?
7.60

If you can, please state the reported pIC50 value of O=C(O)c1ccc(OCCCc2cc3c(cc2O)CC(CCc2ccccc2)O3)cc1 (stereo unspecified) .
7.36

Find the recorded pIC50 belonging to Oc1cc2c(cc1Cc1ccccc1)OC(CCc1ccccc1)C2 (stereo unspecified) and report it.
7.32

Cited source: ChEMBL document CHEMBL1125428
